Measured values drawn from ChEMBL document CHEMBL1201862 for this set.

System: LOX IMVI
Procedure text: NCI tumour cell line growth inhibition, 48 h
The source made the active and inactive calls. Rule as the data show it: active = GI50 up to about 1.1 µM and inactive = higher.
Please provide measured GI50 for the entries that follow.

Exercise: I am curious: what GI50 value has been reported for CCCCC1(OC(=O)CCC(=O)O)CCC2(CCC(C)C(C/C=C(C)/C=C/C(O)C(C)/C=C/C(=O)O)O2)OC1CC/C(C)=C/C(=O)O (configuration not stated) ?
Key: 1.66 µM (inactive)

Exercise: Try CC1(C)CC(O)C2=C(O1)C(=O)c1ncccc1C2=O (configuration not stated) next.
Key: 1.58 µM (inactive)

Exercise: Same read-out for CC1CC(=O)N(N(C)C)C2(C#N)C(=O)N=C(N)C12C#N (configuration not stated) ?
Key: > 100 µM (inactive)

Exercise: Subsequent entry: C=CCC1(CN(C)C)CC/C(=C\c2cc(OC)c(OC)c(OC)c2)C1=O (configuration not stated)
Key: 23.2 µM (inactive)

Exercise: Queued: C=CCN1C(=O)/C(=C/c2cccs2)N=C1SC1OC(COC(=O)c2ccccc2)C(OC(=O)c2ccccc2)C1OC(=O)c1ccccc1 (configuration not stated)
Key: > 100 µM (inactive)

Exercise: Same read-out for BrC(Br)([P+](c1ccccc1)(c1ccccc1)c1ccccc1)[P+](c1ccccc1)(c1ccccc1)c1ccccc1 ?
Key: 13.2 µM (inactive)

Exercise: Same lookup for COc1cc2cnc3c4cc(O)ccc4ccc3c2cc1OC , please.
Key: 42.6 µM (inactive)
